Where do these numbers come from? They come from ChEMBL document CHEMBL3588831.

Below: a set of entries, each annotated with reported Drug uptake.
tested on: Kidney; assay: Biodistribution in kidney of C57BL/6J mouse bearing mouse B16F0 cells at 0.37 to 1.85 MBq, iv after 1 hr by gamma counting method; assay type: ADME, organism-based; details: in vivo
API: value field is a number in % ID/g; no unit string.

O=C(c1ccc2cccnc2n1)N1CCN(Cc2ccc([123I])cc2)CC1 has a reported Drug uptake of 7.5

----------
Below: a set of entries, each annotated with reported Drug uptake.
test system: Kidney; test: Biodistribution in kidney of C57BL/6J mouse bearing mouse B16F0 cells at 0.37 to 1.85 MBq, iv after 48 hrs by gamma counting method; assay type: ADME, organism-based; conditions: in vivo
API: value field is a number in % ID/g; no unit string.

Past entries and their recorded results:
[
  {
    "chemical-structure": "O=C(CN1Cc2ccccc2C1=O)NC1CCN(Cc2ccc([123I])cc2)CC1",
    "val": 0.3
  },
  {
    "chemical-structure": "O=C(c1ccc2c(n1)NCCC2)N1CCN(Cc2ccc([123I])cc2)CC1",
    "val": 0.4
  },
  {
    "chemical-structure": "O=C(CN1Cc2ccccc2C1=O)N1C[C@H]2CN(Cc3ccc([123I])cc3)C[C@H]2C1",
    "val": 0.2
  }
]

Next item in the queue.
O=C(c1ccc2cccnc2n1)N1CCN(Cc2ccc([123I])cc2)CC1 has a reported Drug uptake of 0.5
